Each item that follows carries a reported pIC50.
# Experimental Target: full length active recombinant SYK enzyme (Homo sapiens, UniProt P43405)
# Construct: full length active recombinant SYK enzyme (Millipore, CA)
# Assay Info: Inhibition of Syk tyrosine phosphorylation activity (LANCE TR-FRET kinase assay)
# Test Parameters: 1 nM active SYK enzyme, 550 nM SYK-substrate, 100 μM ATP, 1 hour at room temperature
pIC50: −log10 of the molar value.

Some solved cases for reference:
INSERT INTO measurements (compound, experimental_target, recorded_value) VALUES
  ('CC[C@@H](Nc1cnc(C(N)=O)c(Nc2cc(C)ns2)c1)C(N)=O [Example 5]', 'full length active recombinant SYK enzyme (Homo sapiens, UniProt P43405)', '7.00 to 8.00'),
  ('NC(=O)c1ncc(N[C@@H]2CCCC[C@@H]2N)cc1Nc1cc(-c2ccncc2)no1 [Example 49]', 'full length active recombinant SYK enzyme (Homo sapiens, UniProt P43405)', '8.00 to 9.00'),
  ('NC(=O)c1ncc(N[C@@H]2CCCC[C@@H]2N)cc1Nc1cc(C2CC2)no1 [Example 34]', 'full length active recombinant SYK enzyme (Homo sapiens, UniProt P43405)', '8.00 to 9.00');

q: So what's the measured pIC50 for this one? NC(=O)c1ncc(N[C@@H]2CCCC[C@@H]2N)cc1Nc1ccc2ccncc2c1 [Example 14]
a: 7.00 to 8.00

q: What value of pIC50 has been recorded for this entry: Cc1cc(Nc2cc(N[C@@H]3CCCC[C@@H]3N)cnc2C(N)=O)sn1 [Example 4]
a: 8.00 to 9.00

q: Look up pIC50: Cc1cc(Nc2cc(N[C@H](CC(C)C)C(N)=O)cnc2C(N)=O)sn1 [Example 1]
a: 8.00 to 9.00

q: Entry CC[C@@H](Nc1cnc(C(N)=O)c(Nc2cnc3cccnc3c2)c1)C(N)=O [Example 54] : reported pIC50 = ?
a: 6.00 to 7.00

q: Please give the measured pIC50 for this compound: CC(C)c1cc(Nc2cc(N[C@@H]3CCCC[C@@H]3N)cnc2C(N)=O)on1 [Example 36]
a: 7.00 to 8.00

q: Need pIC50 of Cc1cc(Nc2cc(NC3(C(N)=O)CC3)cnc2C(N)=O)sn1 [Example 32] , thanks.
a: 8.00 to 9.00

----------
# Experimental Target: full length active recombinant SYK enzyme (Homo sapiens, UniProt P43405)
# Construct: full length active recombinant SYK enzyme (Millipore, CA)
# Assay Info: Inhibition of Syk tyrosine phosphorylation activity (LANCE TR-FRET kinase assay)
# Test Parameters: 1 nM active SYK enzyme, 550 nM SYK-substrate, 100 μM ATP, 1 hour at room temperature
Measurement Type: IC50

Examples with answers:
INSERT INTO assay_data (compound, measurement_type, recorded_value) VALUES
  ('NC(=O)c1ncc(N[C@@H]2CCCC[C@@H]2N)cc1Nc1cccc(-c2ncco2)c1 [Example 55]', 'IC50', '10 to 100 nM'),
  ('Cc1cc(Nc2cc(N[C@H](CC3CCCCC3)C(N)=O)cnc2C(N)=O)sn1 [Example 18]', 'IC50', '10 to 100 nM'),
  ('NC(=O)c1ncc(N[C@@H]2CCCC[C@@H]2N)cc1Nc1cc(-c2ccccc2)no1 [Example 8]', 'IC50', '1 to 10 nM'),
  ('NC(=O)c1ncc(N[C@@H]2CCCC[C@@H]2N)cc1Nc1cnn2ccccc12 [Example 25]', 'IC50', '100 to 1000 nM'),
  ('CC(C)C[C@@H](Nc1cnc(C(N)=O)c(Nc2ccc3ncccc3c2)c1)C(N)=O [Example 16]', 'IC50', '10 to 100 nM');

q: Suppose we examine the compound Cc1cc(Nc2cc(N[C@H](CC(F)(F)F)C(N)=O)cnc2C(N)=O)sn1 [Example 44] ; what IC50 value has been reported?
a: < 1 nM

q: Recorded IC50 for Cc1nsc(Nc2cc(N[C@H](CC3CC3)C(N)=O)cnc2C(N)=O)c1I [Example 31] , please?
a: 100 to 1000 nM

q: Recorded IC50 for Cc1cc(Nc2cc(N[C@H](CC3CC3)C(N)=O)cnc2C(N)=O)sn1 [Example 3] , please?
a: 1 to 10 nM

q: Any idea what its IC50 is? The compound is Cc1cc(Nc2cc(N[C@@H]3CCCC(F)(F)[C@@H]3N)cnc2C(N)=O)sn1 [Example 2]
a: 10 to 100 nM

q: Can you look up the measured IC50 of COC[C@@H](Nc1cnc(C(N)=O)c(Nc2cc(C)ns2)c1)C(N)=O [Example 48] for me?
a: 10 to 100 nM

q: Any idea what its IC50 is? The compound is Cc1cc(Nc2cc(N[C@@H](C(N)=O)c3ccccc3)cnc2C(N)=O)sn1 [Example 42]
a: 10 to 100 nM

q: What measured IC50 goes with NC(=O)c1ncc(N[C@H](CC(F)(F)F)C(N)=O)cc1Nc1ccc2cccnc2c1 [Example 51] ?
a: 1 to 10 nM

q: Item CC(C)C[C@@H](Nc1cnc(C(N)=O)c(Nc2nc(-c3ccccc3)no2)c1)C(N)=O [Example 30] has what recorded IC50?
a: 10 to 100 nM

q: What measured IC50 goes with NC(=O)c1ncc(N[C@@H]2CCOC[C@@H]2N)cc1Nc1cc(-c2ccncc2)no1 [Example 52] ?
a: 10 to 100 nM

q: Sample Cn1cc(Nc2cc(N[C@@H]3CCCC[C@@H]3N)cnc2C(N)=O)cn1 [Example 24] — what was its IC50?
a: 100 to 1000 nM

----------
# Experimental Target: full length active recombinant SYK enzyme (Homo sapiens)
# Construct: full length active recombinant SYK enzyme (Millipore, CA)
# Assay Info: Inhibition of Syk tyrosine phosphorylation activity (LANCE TR-FRET kinase assay)
# Test Parameters: 1 nM active SYK enzyme, 550 nM SYK-substrate, 100 μM ATP, 1 hour at room temperature
Consider the following compounds and their measured IC50 readings.

INSERT INTO results (smiles_input, recorded_value) VALUES
  ('NC(=O)c1ncc(N[C@@H]2CCCC[C@@H]2N)cc1Nc1cccc(-n2nccn2)c1', '10 to 100 nM'),
  ('CCc1cc(Nc2cc(N[C@@H](C(N)=O)C(C)C)cnc2C(N)=O)sn1', '10 to 100 nM'),
  ('CC(C)(C)C[C@@H](Nc1cnc(C(N)=O)c(Nc2ccc3cccnc3c2)c1)C(N)=O', '1 to 10 nM');

q: Item "Cc1cc(Nc2cc(N[C@@H]3CCCC[C@@H]3N)cnc2C(N)=O)on1" has what recorded IC50?
a: 10 to 100 nM

q: Which IC50 is reported for this compound? "CC(C)C[C@@H](Nc1cnc(C(N)=O)c(Nc2cc(-c3ccccc3)no2)c1)C(N)=O"
a: 1 to 10 nM

q: May I ask what IC50 has been recorded for "NC(=O)c1ncc(N[C@@H]2CCCC[C@@H]2N)cc1Nc1cc(-c2cccnc2)no1" ?
a: 10 to 100 nM

q: Entry under review: "NC(=O)c1ncc(N[C@@H]2CCCC[C@@H]2N)cc1Nc1cncs1" . Reported IC50?
a: > 1000 nM
